Several reports have described IC50 for 72 kDa type IV collagenase (Homo sapiens); a selection of those results is presented here.
Numeric answer only, unit nM assumed.

compound=O=C(OCCCCOc1ccccc1)c1cccc(=O)[nH]1 assay_readout=IC50 result_unit=nM recorded_number=90000
compound=COC(=O)[C@H](Cc1ccc(OCc2ccccc2)cc1)NC(=O)c1ccccc1 assay_readout=IC50 result_unit=nM recorded_number=67500
compound=N[C@H](Cc1ccccc1)C(=O)NC[C@H](O)C(=O)NC[C@H](N)[C@@H](O)c1ccc([N+](=O)[O-])cc1 assay_readout=IC50 result_unit=nM recorded_number=109000
compound=O=C(Nc1ccc(S(=O)(=O)C[C@@H](Cc2c[nH]c3ccccc23)C(=O)O)cc1)c1ccc(Br)cc1 assay_readout=IC50 result_unit=nM recorded_number=2.6

Return reported IC50; argument: O=C(NO)[C@H]1CC(CC(=O)N2CCCC2)CC[C@@H]1C(=O)N1CCN(c2ccccc2)CC1 (mixture of isomers)
271

Return reported IC50; argument: C=CCC(C(=O)NO)C(CC(C)C)C(=O)N[C@@H](Cc1ccccc1)C(=O)NC (single isomer, unassigned)
1.8
